- assay system: TEC (Homo sapiens, UniProt P42680)
- Sequence (P42680 whole entry): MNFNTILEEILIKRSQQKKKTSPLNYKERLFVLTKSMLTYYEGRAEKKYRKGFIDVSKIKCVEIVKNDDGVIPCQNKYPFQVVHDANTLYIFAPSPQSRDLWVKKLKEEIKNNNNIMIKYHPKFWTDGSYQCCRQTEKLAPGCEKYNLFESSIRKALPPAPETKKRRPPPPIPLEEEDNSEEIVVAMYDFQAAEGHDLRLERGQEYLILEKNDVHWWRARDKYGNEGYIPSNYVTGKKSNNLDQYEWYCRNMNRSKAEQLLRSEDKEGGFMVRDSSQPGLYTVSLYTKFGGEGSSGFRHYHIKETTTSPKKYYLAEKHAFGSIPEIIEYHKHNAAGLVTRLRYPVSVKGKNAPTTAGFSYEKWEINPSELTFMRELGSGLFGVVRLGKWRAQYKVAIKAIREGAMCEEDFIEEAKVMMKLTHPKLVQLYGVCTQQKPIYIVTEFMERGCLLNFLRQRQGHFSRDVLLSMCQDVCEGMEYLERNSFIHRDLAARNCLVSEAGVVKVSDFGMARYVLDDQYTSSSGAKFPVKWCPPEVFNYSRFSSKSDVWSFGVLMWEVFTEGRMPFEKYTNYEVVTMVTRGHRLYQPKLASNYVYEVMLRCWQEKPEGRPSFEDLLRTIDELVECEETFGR
- experiment: Inhibition of a panel of kinases, in vitro HotSpot kinase assay: TEC
- Assay type: biochemical
- particulars: D-compounds panel data; 1 μM ATP
Collected IC50 values appear next to each entry.

Here's what some known entries look like.
>>> result("Cc1nc2cc(C(=O)N[C@@H]3CCCN(c4cnc(C(N)=O)c(Nc5cnn(C)c5)n4)[C@@H]3C)ccc2[nH]1")
"≤ 10 nM"
>>> result("C[C@@H]1[C@H](NC(=O)c2ccc3c(c2)OCCO3)CCCN1c1cnc(C(N)=O)c(Nc2cnn(C)c2)n1")
"≤ 10 nM"
>>> result("C[C@@H]1CC[C@H](NC(=O)c2ccc(C3CC3)cc2)CN1c1cnc(C(N)=O)c(Nc2ccc(N3CCN(C)CC3)c(F)c2)n1")
"100 to 1000 nM"
>>> result("C[C@@H]1[C@H](NC(=O)c2ccc(C3CC3)cc2F)CCCN1c1cnc(C(N)=O)c(Nc2ccc(N3CCN(C4CCCC4)CC3)cc2)n1")
"10 to 100 nM"
>>> result("C[C@@H]1[C@H](NC(=O)c2ccc(C3CC3)cc2)CCCN1c1cnc(C(N)=O)c(Nc2cnn(C)c2F)n1")
"100 to 1000 nM"

Let us examine a further case.
Input: Look up IC50 of `C[C@@H]1[C@H](NC(=O)c2c[nH]c(C3CC3)n2)CCCN1c1cnc(C(N)=O)c(Nc2cnn(C)c2)n1` and report it.
Output: ≤ 10 nM
